Source listed as PubChem BioAssay (NCI).

test system: SF-539 CNS; assay: NCI-60 one-dose screen, 48 h; conditions: 10 µM unless noted
The panel holds about 83,000 compounds, 20% with a hit somewhere; the sample as a whole holds those more often. Calls of active or inactive are those of the source. The calls were made as follows: active = growth percent below 10; inactive = the rest.
Mark one answer only. Choices: YES (active), NO (inactive)

Use these answered entries as a reference point.
C=C(C)[C@H]1CC/C(C)=C/CC[C@]2(C)O[C@H]2CC/C(COC(=O)[C@@H](OC(C)=O)[C@H](NC(=O)c2ccccc2)c2ccccc2)=C\[C@@H]1O :: NO
NC(=O)c1cccc(-c2cc(C(N)=O)ccc2Cl)c1 :: YES
CN(C)CCCn1c2c(c3ccc(-c4ccn[nH]4)cc3c1=O)C(=O)c1ccccc1-2 :: NO
CC(=O)Nc1ccc(S(=O)(=O)NC2CCCCC2)cc1 :: NO
COc1ccc2c(Nc3ccc(NS(C)(=O)=O)cc3)c3ccccc3nc2c1 :: YES
O=C1C(=O)c2c(nc3ncccn23)-c2ccccc21 :: YES
CS(=O)(=O)c1ccc(-c2cc(-c3nnc(SCC(=O)Nc4ccc(C(=O)/C=C/c5ccc(Cl)cc5)cc4)n3-c3ccccc3)c3ccccc3n2)cc1 :: NO
FC(F)(F)Oc1cccc(-c2cc(NCCCCCCNc3cc(-c4cccc(OC(F)(F)F)c4)nc4ccc(N5CCCC5)cc34)c3cc(N4CCCC4)ccc3n2)c1 :: YES

INPUT: GET /call?item= COc1ccc(/C(=C\c2ccccc2)C(=O)O)cc1OC returns the recorded outcome of this test.
OUTPUT: NO

INPUT: GET /call?item= CCNC(=O)c1[nH]cc(-c2ccc(OC)cc2)c1-c1cc(OC)c(OC)c(OC)c1 returns the recorded outcome of this test.
OUTPUT: NO

INPUT: GET /call?item= Cc1nn(-c2ccccc2)c(N2CCOCC2)c1/C=N/N=c1\sc2ccccc2n1C returns the recorded outcome of this test.
OUTPUT: NO

INPUT: GET /call?item= CCN(CC)CCCCCCNc1cc(OC)cc2cccnc12 returns the recorded outcome of this test.
OUTPUT: NO

----------
Measured growth, listed per entry for reference.
test system: CAKI-1 renal; assay: NCI-60 one-dose screen, 48 h (100 = growth as untreated, 0 = no growth, -100 = all killed); details: 10 µM unless noted
Compounds without any hit were thinned out: in the full panel of roughly 83,000, 20% have a hit.
Answer in %, number only, no unit symbol.

Study these solved cases before continuing.
COc1ccc(NC(=O)c2sc3nc(C)c(C(=O)CCc4cccc(OC)c4)cc3c2N)cc1 :: 71
Cc1c2c(cc[n+]1Cc1ccccc1)c1ccc(OCC3CCCCC3)cc1n2CC1CCCCC1 :: -92.5
CCN1C(=O)N(CC)C2NC(SC)=NC21 (stereo not given) :: 87.9
CCCCN(CCCC)CCc1c(C)cc(C)c(CCN(CCCC)CCCC)c1O :: 39.7

INPUT: Form field: growth recorded for COc1ccc(C2=C(c3ccccc3)c3ccc(OC(C)=O)cc3OC2(C)C)cc1 with CAKI-1 renal (enter value)
OUTPUT: 67.8

----------
Measured growth, listed per entry for reference.
system: A549/ATCC NSCLC; assay: NCI-60 one-dose screen, 48 h (100 = growth as untreated, 0 = no growth, -100 = all killed); settings: 10 µM unless noted
About 83,000 compounds went through this panel and 20% of them were active in at least one assay; those are over-represented in the sample as a whole.
Answer in %, number only, no unit symbol.

INPUT: Which growth reading was recorded for the molecule COc1cc(C2CC(c3cccc(Nc4ccncc4)c3)=NN2c2ccc(Cl)cc2)cc(OC)c1OC (stereo not given) ?
OUTPUT: 26.1
